The origin of these recorded values is PubChem BioAssay.

experiment: E. coli acrAB mutant growth effects, primary screen, E. coli filamentation inducers, strain DRC39, OD650, 24 h (AID 1178); conditions: higher = more signal, called active from +8 up or from −8 down;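 note: growth measured as culture turbidity by optical density at 650 nm; test concentration not given here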
Mark met for reported z-score of -0.005 or greater; mark not met for anything smaller.

Record excerpt, results attached:
MOLECULE: COc1ccc(O[C@H]2C=C[C@@H](c3ccccc3)O[C@@H]2CON=C2[C@H]3CCn4c(=O)n(-c5ccccc5)c(=O)n4[C@H]3[C@H](O)[C@@H]3O[C@H]23)cc1
DISCRETE LABEL: met
--
MOLECULE: CC(C)(C)N1C(=O)[C@H]2[C@H]3[C@H](O)[C@H](O)CC(=O)[C@@H]3CC[C@H]2C1=O
DISCRETE LABEL: not met
--
MOLECULE: CC(CCN1CCc2nc(-c3ccccc3)c(-c3ccccc3)cc2C1)=NOC[C@@H](O)[C@H]1O[C@@H]2OC(C)(C)O[C@@H]2[C@H]1O
DISCRETE LABEL: met
--
MOLECULE: COc1ccc(O[C@H]2C=C[C@@H](c3ccccc3)O[C@@H]2CON=C(C)CCN2CCc3nc(-c4ccccc4)c(-c4ccccc4)cc3C2)cc1
DISCRETE LABEL: not met
--
MOLECULE: O=C1[C@H]2[C@H]3[C@H](O)[C@H](O)CC(=NOC[C@@H](O)COCc4ccco4)[C@H]3CC[C@H]2C(=O)N1C[C@@H]1CCCO1
DISCRETE LABEL: not met

Could you tell me if the measured z-score of CCOC(=O)[C@H](Cc1ccccc1)NC(=O)CCC1CC(OC(=O)NCc2cccc3ccccc23)CC2(CCCC(COC(=O)NCC(c3ccccc3)c3ccccc3)O2)O1 (some centres undefined) reaches -0.005 or more?
not met

Could you tell me if the measured z-score of O=C1[C@H]2[C@H]3[C@H](O)[C@H](O)CC(=NOC[C@@H](O)COCc4ccco4)[C@@H]3CC[C@H]2C(=O)N1C[C@@H]1CCCO1 reaches -0.005 or more?
met

###

test: small-molecule binders of probe aNOTCH3, primary screen, biochemical, small-molecule microarray, 635/667 nm fluorescence (AID 1120); details: higher = more signal;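 note: probe is a biotin-tagged antibody raised against NOTCH3 rather than NOTCH3 protein; score merges spot fluorescence near 667 nm with spot signal to noise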
ENDPOINT LABEL: composite z-score
In your answer, state the number alone without any accompanying words.

COMPOUND: Cc1cc2c(nc1C)CCCCN2CC(C)ON=C1[C@H]2CCn3c(=O)n(-c4ccccc4)c(=O)n3[C@H]2[C@H](O)[C@@H]2O[C@H]12 (stereo partly specified)
ENDPOINT LABEL: composite z-score
QUANTITATIVE RESULT: 0.0562

COMPOUND: O=C1C[C@@H](O)[C@@H](O)[C@@H]2[C@@H]3C(=O)N(Cc4ccccc4)C(=O)[C@@H]3CC[C@@H]12
ENDPOINT LABEL: composite z-score
QUANTITATIVE RESULT: -0.0328

COMPOUND: CC(=O)OC[C@H]1OC(ON=CC[C@@H]2C=C[C@H](OC(C)=O)[C@@H](COC(C)=O)O2)[C@H](OC(C)=O)[C@@H](OC(C)=O)[C@@H]1OC(C)=O (stereo partly specified)
ENDPOINT LABEL: composite z-score
QUANTITATIVE RESULT: 0.144

Would you kindly share the measured composite z-score for CCC(=O)[C@@]1(O)C(=O)N2C(=C3C(=O)OCC[C@@H]31)N(Cc1ccccc1)C(C)=C(C(=O)OC)[C@H]2c1ccccc1 ?
0.0597

Would you kindly share the measured composite z-score for CC(=O)O[C@H]1C2=CO[C@H](C)[C@H]3[C@H]4C5=C([C@H](O)[C@H]6O[C@H]6C5=O)[C@H](OC4C)[C@@]23C(=O)[C@@H]2O[C@@H]21 (stereo partly specified) ?
0.0836

Would you kindly share the measured composite z-score for CCOC(=O)[C@H](Cc1ccccc1)NC(=O)CCC1CC(OC(=O)NCCc2ccc(F)cc2)CC2(CCCC(COC(=O)NCCOC)O2)O1 (stereo partly specified) ?
0.0525
